Where these numbers come from: paper PMC10786891

Target: T1, EsCas13d, nuclease-dead (Eubacterium siraeum, UniProt B0MS50, R295A;H300A;R849A;H854A)
T1 sequence: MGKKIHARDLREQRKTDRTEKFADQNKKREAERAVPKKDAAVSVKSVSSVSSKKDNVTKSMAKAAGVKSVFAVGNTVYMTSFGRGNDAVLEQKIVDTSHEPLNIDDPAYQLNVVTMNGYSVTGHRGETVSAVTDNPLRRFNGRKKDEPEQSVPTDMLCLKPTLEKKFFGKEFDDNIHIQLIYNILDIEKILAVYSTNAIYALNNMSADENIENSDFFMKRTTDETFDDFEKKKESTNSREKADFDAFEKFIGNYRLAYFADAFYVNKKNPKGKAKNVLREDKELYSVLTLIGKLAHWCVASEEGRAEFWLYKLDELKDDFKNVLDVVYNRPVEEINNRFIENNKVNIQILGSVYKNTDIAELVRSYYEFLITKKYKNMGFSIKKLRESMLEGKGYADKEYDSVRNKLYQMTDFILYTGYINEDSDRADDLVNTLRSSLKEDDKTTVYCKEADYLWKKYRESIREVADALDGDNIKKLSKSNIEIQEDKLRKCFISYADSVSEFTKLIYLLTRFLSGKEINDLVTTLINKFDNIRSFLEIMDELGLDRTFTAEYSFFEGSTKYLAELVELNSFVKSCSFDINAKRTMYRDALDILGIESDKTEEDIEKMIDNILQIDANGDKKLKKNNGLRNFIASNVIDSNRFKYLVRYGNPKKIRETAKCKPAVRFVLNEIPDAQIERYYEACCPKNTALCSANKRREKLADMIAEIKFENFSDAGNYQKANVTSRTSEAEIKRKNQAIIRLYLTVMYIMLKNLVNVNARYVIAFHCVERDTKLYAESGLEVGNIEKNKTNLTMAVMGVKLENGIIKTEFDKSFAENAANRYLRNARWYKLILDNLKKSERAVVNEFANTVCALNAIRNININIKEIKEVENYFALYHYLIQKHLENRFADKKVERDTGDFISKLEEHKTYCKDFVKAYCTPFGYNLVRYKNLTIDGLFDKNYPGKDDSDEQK
Experiment: crRNA (strand 1, pre-loaded); Mg2+; 40 mM Tris-HCl pH 7.5, 150 mM NaCl, 6 mM MgCl2, 1 mM DTT, 0.1% Tween-20, 0.2 mg/ml BSA; 25 C; 10 min per concentration, then washed
Details: tags: His6-TwinStrep-SUMO cleaved; N-terminal SNAP kept (SNAP-Surface 488); label: 3' end held by stalled T7 RNA polymerase
Attribute measured: Kd (nM)
Reply with just the number (in nM).

Worked set:
Binder	Measured result
target 2 MT 5'PFS CCC 3'PFS CCU (mixed) RNA 1: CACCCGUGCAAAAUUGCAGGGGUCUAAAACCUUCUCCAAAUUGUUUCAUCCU RNA 2: GGGAAUGGAUCCACAUCUACGAAUUCCCCAGGAUGAAACAAUUUGGAGAAGCCUAGAUCGGAAGAGCACACGU	7.6
target 2 MT 5'PFS GCA 3'PFS AGA (mixed) RNA 1: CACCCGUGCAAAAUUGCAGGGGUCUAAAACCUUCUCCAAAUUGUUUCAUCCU RNA 2: GGGAAUGGAUCCACAUCUACGAAUUCGCAAGGAUGAAACAAUUUGGAGAAGAGAAGAUCGGAAGAGCACACGU	8.2
target 1 insG 3' of 22,insG 3' of 3 (mixed) RNA 1: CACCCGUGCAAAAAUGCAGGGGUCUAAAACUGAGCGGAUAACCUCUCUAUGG RNA 2: GGGAAUGGAUCCACAUCUACGAAUUCGUACGCAUAGAGAGGUUAUCCGCUGCACCGAGAUCGGAAGAGCACACGU	21.5

Query: Identify the reported Kd for the following entry. target 1 MT 5'PFS ACA 3'PFS ACU (mixed) RNA 1: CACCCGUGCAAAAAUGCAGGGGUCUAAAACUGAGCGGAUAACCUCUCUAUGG RNA 2: GGGAAUGGAUCCACAUCUACGAAUUCACACCAUAGAGAGGUUAUCCGCUCAACUAGAUCGGAAGAGCACACGU
Result: 9.3

Query: Please indicate Kd recorded for target 2 MT 5'PFS UGA 3'PFS ACC (mixed) RNA 1: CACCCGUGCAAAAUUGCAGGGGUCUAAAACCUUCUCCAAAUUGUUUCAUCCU RNA 2: GGGAAUGGAUCCACAUCUACGAAUUCUGAAGGAUGAAACAAUUUGGAGAAGACCAGAUCGGAAGAGCACACGU
Result: 16

Query: Look up Kd of target 3 G4C,C6A (mixed) RNA 1: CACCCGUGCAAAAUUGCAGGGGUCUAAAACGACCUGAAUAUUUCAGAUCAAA RNA 2: GGGAAUGGAUCCACAUCUACGAAUUCGUUUUUGAUCUGAAAUAUUAACGUCUGCAGAUCGGAAGAGCACACGU and report it.
Result: 26.6

Query: Give reported Kd value for target 3 G4C,U7A (mixed) RNA 1: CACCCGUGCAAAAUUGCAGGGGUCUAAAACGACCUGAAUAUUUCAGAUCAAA RNA 2: GGGAAUGGAUCCACAUCUACGAAUUCGUUUUUGAUCUGAAAUAUACACGUCUGCAGAUCGGAAGAGCACACGU
Result: 27.6

Query: Report Kd for target 2 MT 5'PFS GCA 3'PFS CAG (mixed) RNA 1: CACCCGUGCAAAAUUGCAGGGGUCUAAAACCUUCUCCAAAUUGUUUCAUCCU RNA 2: GGGAAUGGAUCCACAUCUACGAAUUCGCAAGGAUGAAACAAUUUGGAGAAGCAGAGAUCGGAAGAGCACACGU
Result: 7.9

Query: Write down Kd measured for item target 1 insA 3' of 21,insA 3' of 5 (mixed) RNA 1: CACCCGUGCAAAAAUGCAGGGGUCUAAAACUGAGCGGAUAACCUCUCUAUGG RNA 2: GGGAAUGGAUCCACAUCUACGAAUUCGUACCAAUAGAGAGGUUAUCCGACUCACCGAGAUCGGAAGAGCACACGU
Result: 14.3

Query: Give recorded Kd. target 1 insU 3' of 7,insG 3' of 4 (mixed) RNA 1: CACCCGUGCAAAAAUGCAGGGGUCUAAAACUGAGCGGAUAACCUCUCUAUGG RNA 2: GGGAAUGGAUCCACAUCUACGAAUUCGUACCAUAGAGAGGUUAUCUCGCGUCACCGAGAUCGGAAGAGCACACGU
Result: 7.41

Query: Dear colleague, please send me the reported Kd for target 2 MT 5'PFS CUC 3'PFS AAA (mixed) RNA 1: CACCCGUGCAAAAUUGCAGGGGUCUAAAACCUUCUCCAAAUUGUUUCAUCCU RNA 2: GGGAAUGGAUCCACAUCUACGAAUUCCUCAGGAUGAAACAAUUUGGAGAAGAAAAGAUCGGAAGAGCACACGU when you can.
Result: 2.3

Query: For the binder target 1 insC 3' of 19,insG 3' of 6 (mixed) RNA 1: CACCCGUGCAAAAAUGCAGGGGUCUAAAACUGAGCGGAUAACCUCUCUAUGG RNA 2: GGGAAUGGAUCCACAUCUACGAAUUCGUACCAUCAGAGAGGUUAUCCGGCUCACCGAGAUCGGAAGAGCACACGU , give its measured Kd value.
Result: 32

Query: # return recorded Kd for input target 2 MT 5'PFS CAC 3'PFS UUG (mixed) RNA 1: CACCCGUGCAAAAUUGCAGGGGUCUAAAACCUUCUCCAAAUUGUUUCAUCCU RNA 2: GGGAAUGGAUCCACAUCUACGAAUUCCACAGGAUGAAACAAUUUGGAGAAGUUGAGAUCGGAAGAGCACACGU
Result: 2.8

Query: Output measured Kd for this item: target 2 MT 5'PFS GGA 3'PFS ACU (mixed) RNA 1: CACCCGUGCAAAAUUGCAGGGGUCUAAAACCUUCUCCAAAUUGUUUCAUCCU RNA 2: GGGAAUGGAUCCACAUCUACGAAUUCGGAAGGAUGAAACAAUUUGGAGAAGACUAGAUCGGAAGAGCACACGU
Result: 9.8

Query: Using the record for target 1 MT 5'PFS GAA 3'PFS UUA (mixed) RNA 1: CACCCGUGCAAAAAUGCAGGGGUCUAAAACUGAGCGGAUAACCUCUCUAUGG RNA 2: GGGAAUGGAUCCACAUCUACGAAUUCGAACCAUAGAGAGGUUAUCCGCUCAUUAAGAUCGGAAGAGCACACGU , state its measured Kd.
Result: 16
